# Target Or Test System: T1, CD134 expressed on the cell surface of HT1080_OX40 cells (human, UniProt P43489 29-277)
# T1 construct: whole, on cells; species not restated for the HT1080 transfectant
# T1 sequence (looked up): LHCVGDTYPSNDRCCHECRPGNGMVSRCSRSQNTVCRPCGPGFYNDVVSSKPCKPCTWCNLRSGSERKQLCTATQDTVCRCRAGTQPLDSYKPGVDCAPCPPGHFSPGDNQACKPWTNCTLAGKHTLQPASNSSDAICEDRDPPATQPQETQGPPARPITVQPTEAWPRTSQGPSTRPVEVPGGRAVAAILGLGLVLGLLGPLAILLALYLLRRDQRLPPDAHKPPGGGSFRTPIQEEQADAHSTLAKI
# Procedure Text: HT1080_OX40 cells, imaging; also: test concentration or dose not given here
Cellular binding assay [RFU] by entry:
Entry format: amount then unit.

The examples below pair each entry with its known result.
P018.S.11.A.D04 (antibody, V domains shown, V regions on human Ig constant parts; also called AB134_31) VH: QSVEESGGRLVTPGTPLTLTCTVSGFSLNSYDMSWVRQAPGKGLEWIGFISASGSIYFASWAKGRFTISKTSTTVDLKITSPTTEDTATYFCASDSYGWAYVYYFNLWGPGTLVTVSS VL: AVVLTQTPASVSPAVGGTVTINCRASEDIGSYLGWYQQKPGQPPKLLMHDASDLASGVPSRFSGSGSGTEFTLTISGVQSDDAATYYCQSAWYSSNTDKMAFGGGTEVVVK :: 530 RFU
P018.S.12.A.E04 (antibody, V domains shown, V regions on human Ig constant parts; also called AB134_75) VH: QSVEESGGRLVTPGTPLTLTCTVSGFSLNSYDMSWVRQAPGKGLEWIGFISASGSIYFANWAKGRFTISKTSTTVDLKITSPTTEDTATYFCASDSYGWAYVYYFNLWGPGTLVTVSS VL: AVVLTQTPASVSAAVGGTVTINCRASEDVGSYLGWYQQRAGQPPKLLMHDASDLASGVPSRFSGSGSGTEFTLTISGVQSDDAATYYCQSAWLGTNTDKMAFGGGTEVVVK :: 659 RFU
P018.S.12.A.F05 (antibody, V domains shown, V regions on human Ig constant parts; also called AB134_81) VH: QSLEESGGGLVQPGGSLKLSCKASGIDFSSYGVSWVRQAPGKGLEWIAYTYPDYGSTDYASWVNGRFTISLDNAQNTVFLQMTSLTAADTATYFCASSSNGWGGGFYFDLWGPGTLVTVSS VL: ALVMTQTPSPVSAAVGGTVTINCQASEDIYSNLAWFQQKPGQPPKLLIYGASTLASGVPSRFSGSGSGTEFTLTINDLKSDDAATYYCLGVYTYITTDPNAFGGGTEVVVK :: 511 RFU

Ask | Specify measured Cellular binding assay [RFU] for P018.S.12.A.B01 (antibody, V domains shown, V regions on human Ig constant parts; also called AB134_56) VH: QEQLVESGGGLVQPEGSLTLTCKASGFDFSYNSMCWVRQAPGKGLEWITCIYNGDGSTWYASWAKGRFTISKTSSTTVTLQMTSLTAADTATYFCTRDFGLWGPGTLVTVSS VL: ALVMTQTPSSTSEPVGGTVTINCQASESVANHKQLSWYQQKPGQPPKVLIYYASTLASGVPSRFKGSGSGTQFTLTISDVVSDDAATYYCSGYKSISTDGNAFGGGTEVVVK .
Reply | 607 RFU

Ask | Recall and state the measured Cellular binding assay [RFU] for P018.S.12.A.E05 (antibody, V domains shown, V regions on human Ig constant parts; also called AB134_76) VH: QSVEESGGRLVTPGGSLTLTCTASGFDLSSYATSWVRQAPGKGLEWIGIIYGSGSTTYASWVKGQFTISKSSSTTVDLKMTSLTTEDTATYFCARGLVASTDNYNLWGPGTLVTVSS VL: AAVLTQTPSPVSVAVGGTVTINCQASQSVYNNNYLAWFQQKPGQPPKLLIYLASILASGVPSRFKGSGSGTQFTLTINGVQSDDAATYYCLGDVGGGERVFGGGTEVVVK .
Reply | 523 RFU

Ask | Tell me Cellular binding assay [RFU] reported for P018.S.04.A.F06 (antibody, V domains shown, V regions on human Ig constant parts; also called AB134_13) VH: QSVEESGGRLVTPGTPLTLTCTVSGIDLSSSAMSWVRQAPGKGLEWIGIIGYNDFTYYANWAKGRFTISKTSTTVDLKMTSPTTEDTATYFCARGGSSSYSDYVFDPWGPGTLVTVSS VL: AFEMTQTPSSVSEPVGGTVTIKCQASQSIYSNLAWYQQKPGQRPKLLIYDASDLASGVPSRFSGSGYGTEFTLTISDLESADAATYYCQSYYGISSYGVAFGGGTEVVVK
Reply | 402 RFU
